- Tested on: HepG2
- ASSAY_COMMENT: cell viability relative to DMSO; higher = less toxic
- CONDITION_SUMMARY: 72 h; 100 nM
Here the recorded cell viability is given for each entry.

# MOLECULE, cell viability / %
measured = [
    ("Cc1c(N)nc([C@H](CC(N)=O)NC[C@H](N)C(N)=O)nc1C(=O)N[C@H](C(=O)N[C@H](C)[C@@H](O)[C@H](C)C(=O)N[C@H](C(=O)NCCc1nc(-c2nc(C(=O)NCCCNCCCCN)cs2)cs1)[C@@H](C)O)[C@@H](O[C@@H]1O[C@@H](CO)[C@@H](O)[C@H](O)[C@@H]1O[C@@H]1O[C@H](CO)[C@@H](O)[C@H](OC(N)=O)[C@@H]1O)c1cnc[nH]1 [bleomycetin]", 98.1),
    ("Nc1ncccc1-c1nc2ccc(-c3ccccc3)nc2n1-c1ccc(C2(N)CCC2)cc1 [ARQ-092]", 90.4),
    ("CC(=O)N[C@H]1[C@@H](O)[C@H](O)[C@@H](CO)O[C@@H]1O [N-acetylmannosamine]", 110),
    ("O=C(O)[C@@H]1C[C@@H](C2CCCCC2)CN1C(=O)CP(=O)(O)CCCCc1ccccc1 [fosinoprilat]", 96.2),
    ("COc1cc2ncnc(Nc3ccc(Cl)cc3F)c2cc1OC", 89.4),
    ("O=C(O)CC[C@H]1CC[C@@](c2cc(F)ccc2F)(S(=O)(=O)c2ccc(Cl)cc2)CC1 [MK-0752]", 98.9),
]

* * *

Here the recorded drug sensitivity score is given for each entry.
- System: Caco-2
- ASSAY_COMMENT: drug sensitivity score (DSS) for viability; higher = more toxic; extreme values may be limits of the assay
- CONDITION_SUMMARY: 72 h
MEASURE: drug sensitivity score

# COMPOUND, ASSAYED_TARGET, MEASURE, REPORTED_RESULT
data = [
    ("C[C@H]1CCC/C=C/[C@@H]2C[C@H](O)C[C@H]2[C@H](O)/C=C/C(=O)O1", "Caco-2", "drug sensitivity score", 16.3),
    ("Cc1ccc2c(c1)c1c(n2CCc2ccc(C)nc2)CCN(C)C1 [latrepirdine]", "Caco-2", "drug sensitivity score", 0),
    ("O=C(O)[C@@H]1C[C@@H](C2CCCCC2)CN1C(=O)CP(=O)(O)CCCCc1ccccc1", "Caco-2", "drug sensitivity score", 0),
    ("COc1ccc2[nH]c(C(=O)c3ccccc3)cc2c1", "Caco-2", "drug sensitivity score", 14.9),
    ("O=C(O)COc1ccc(/C=C2\\SC(=O)NC2=O)cc1", "Caco-2", "drug sensitivity score", 0),
]

* * *

Here the recorded cell viability is given for each entry.
- Tested on: HepG2
- ASSAY_COMMENT: cell viability relative to DMSO; higher = less toxic
- CONDITION_SUMMARY: 72 h; 100 nM
MEASURE: cell viability (%)

# MOLECULE, ASSAYED_TARGET, MEASURE, REPORTED_RESULT
data = [
    ("CN([C@@H](Cc1ccc(OS(=O)(=O)c2cccc3cnccc23)cc1)C(=O)N1CCN(c2ccccc2)CC1)S(=O)(=O)c1cccc2cnccc12", "HepG2", "cell viability", 105),
    ("O=C(CC1NCCCC1O)Cn1cnc2cc(Br)c(Cl)cc2c1=O (configuration not stated)", "HepG2", "cell viability", 24.1),
    ("CC(C)(C)C1CCc2c(sc(NC(=O)c3ccco3)c2C(=O)O)C1 (configuration not stated)", "HepG2", "cell viability", 103),
    ("CCc1cccc(CC)c1NC(=O)N1Cc2[nH]nc(NC(=O)c3ccc(N4CCN(C)CC4)cc3)c2C1", "HepG2", "cell viability", 93.9),
    ("Nc1ccc(S(=O)(=O)c2ccc(N)cc2)cc1", "HepG2", "cell viability", 93.2),
    ("O=C(NCC(=O)N1CCCC1)Nc1ccc2cnccc2c1", "HepG2", "cell viability", 98.4),
    ("CCC(=O)O[C@H]1[C@H](O[C@@H]2[C@@H](C)[C@H](O[C@H]3C[C@@](C)(OC)[C@@H](O)[C@H](C)O3)[C@@H](C)C(=O)O[C@H](CC)[C@@](C)(O)[C@H](O)[C@@H](C)C(=O)[C@H](C)C[C@@]2(C)O)O[C@H](C)C[C@@H]1N(C)C [erythromycin-estolate]", "HepG2", "cell viability", 104),
    ("COc1ccccc1OCCNCC(O)COc1cccc2[nH]c3ccccc3c12 (configuration not stated)", "HepG2", "cell viability", 88.7),
    ("Nc1nc(=O)n([C@@H]2O[C@H](CO)[C@@H](O)[C@@H]2F)cc1I", "HepG2", "cell viability", 96.1),
    ("CC(=O)S[C@@H]1CC2=CC(=O)CC[C@]2(C)[C@H]2CC[C@@]3(C)[C@@H](CC[C@@]34CCC(=O)O4)[C@H]12", "HepG2", "cell viability", 110),
    ("CCC(=O)NO", "HepG2", "cell viability", 104),
    ("CCOC(=O)[C@H](CCc1ccccc1)N[C@H]1CCc2ccccc2N(CC(=O)O)C1=O", "HepG2", "cell viability", 95.4),
    ("CCC(=O)NC1CCc2cccc(OC)c2C1 (configuration not stated)", "HepG2", "cell viability", 101),
    ("COc1ccc2[nH]c(C(=O)c3ccccc3)cc2c1", "HepG2", "cell viability", 94.8),
    ("CN1[C@@H]2CC[C@H]1C[C@@H](OC(=O)c1c[nH]c3ccccc13)C2", "HepG2", "cell viability", 93.1),
    ("C#C[C@]1(OC(C)=O)CC[C@H]2[C@@H]3CCC4=C[C@@H](OC(C)=O)CC[C@@H]4[C@H]3CC[C@@]21C [ethynodiol-diacetate]", "HepG2", "cell viability", 97.3),
    ("N=C(N)N/N=C/c1c(Cl)cccc1Cl [guanaben-acetate]", "HepG2", "cell viability", 102),
]
